Origin of the recorded values: patent US7795307B2

# system under test: human recombinant acetylcholinesterase (Homo sapiens, UniProt P22303)
# Sequence (P22303 32-614): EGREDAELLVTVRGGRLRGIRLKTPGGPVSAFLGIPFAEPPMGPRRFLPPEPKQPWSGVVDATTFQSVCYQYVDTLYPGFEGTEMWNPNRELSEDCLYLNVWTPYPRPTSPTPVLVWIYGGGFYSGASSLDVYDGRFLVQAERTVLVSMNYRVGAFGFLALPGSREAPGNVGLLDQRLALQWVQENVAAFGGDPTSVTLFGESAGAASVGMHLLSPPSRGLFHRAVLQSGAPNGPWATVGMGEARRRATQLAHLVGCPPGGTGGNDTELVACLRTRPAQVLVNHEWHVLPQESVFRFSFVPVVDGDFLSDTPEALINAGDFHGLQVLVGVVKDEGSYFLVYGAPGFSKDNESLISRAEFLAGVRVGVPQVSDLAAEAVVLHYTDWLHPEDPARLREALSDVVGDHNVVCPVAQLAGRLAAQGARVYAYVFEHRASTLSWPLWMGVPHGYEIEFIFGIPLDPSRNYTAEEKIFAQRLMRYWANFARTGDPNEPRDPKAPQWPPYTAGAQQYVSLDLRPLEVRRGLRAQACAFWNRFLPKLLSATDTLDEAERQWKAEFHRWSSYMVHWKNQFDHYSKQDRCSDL
# assay: biochemical
# conditions used: 25° C., 30 minutes preincubation, 0.3 mM acetylthiocholine, Dixon plot
observable: IC50 (nM)
Give the quantity in nM, number only.

Worked cases, IC50 given:
[
  {
    "query smiles": "Cc1ccccc1O[C@H](CCN(C)C(=O)Oc1cccc([C@H](C)N(C)C)c1)c1ccccc1",
    "unit descriptor": "nM",
    "IC50": 460
  },
  {
    "query smiles": "C[C@H](Cc1ccccc1)NC(=O)Oc1ccc2c(c1)[C@]1(C)CCN(C)[C@@H]1N2C",
    "unit descriptor": "nM",
    "IC50": 253
  },
  {
    "query smiles": "C[C@@H](Cc1ccccc1)NC(=O)Oc1cccc([C@H](C)N(C)C)c1",
    "unit descriptor": "nM",
    "IC50": 449
  }
]

Please find the next compound below.
Enquiry: # get_value(readout='IC50', item= C[C@H](Cc1ccccc1)N(C)C(=O)Oc1ccc2c(c1)[C@]1(C)CCN(C)[C@@H]1N2C )
Return: 5440
